FYI, the data here is from patent US11415579B2.

# Lookup of reported Rate enhancement, Cdk2 T182C keyed by entry
- Test system: Cdk2(T182C) (C177A) (Homo sapiens, UniProt P24941, C177A/T182C)
- Construct: poly-histidine; made in house; host or cells: E. coli
- Protocol: Kinetic thiol consumption assay with Cdk2 mutant T182C
- Type: binding
- Parameters: key: rate constant with Cdk2 ÷ rate constant with model thiol (fold)
- Settings: Cdk2 T182C, additional mutation C177A
Property name: Rate enhancement, Cdk2 T182C

Compound: C=CC(=O)N1CC2CC2C1 (stereo not drawn) [CA-211]
Value measured: 2.18

Compound: C=CC(=O)N(c1cccc2ncccc12)C1CCC1 [CA-032/228]
Value measured: 14.8

Compound: C=CC(=O)N1CCn2c(Cc3ccccc3)nnc2C1 [CA-092]
Value measured: 6.483

Compound: C=CC(=O)N(c1ccc2c(c1)OCCO2)C1CC1 [CA-167]
Value measured: 2.016

Compound: C=CC(=O)NCC1(NC(=O)OC(C)(C)C)CCCCC1 [EL-1143]
Value measured: 17.17

Compound: C=CC(=O)Nc1ccc2nc(C)[nH]c2c1 [EL-1109]
Value measured: 5.286
